Listed binders paired with reported kon
target_or_test_system: T1, mouse programmed cell death protein 1 Fc fusion protein (mPD-1-Fc), mPD-1 C60S (aa 25-167) (Mus musculus, UniProt Q02242, stabilised)
T1 construct: not cleaved; source: Expi293F, purified (Protein A, SEC; dimeric fraction); not shown: Fc (human), C-terminal, kept
protocol_text: SPR; Carterra LSA; Fab from the ammonium sulfate precipitate of the culture supernatant immobilised on a NiHC200M chip; hPD-1 (1-1024 nM) or mPD-1-Fc (4-1024 nM) as analyte, fourfold dilution series, no regeneration; HBS-EP pH 7.4, 25 °C; medians over the spots of a construct, KD = koff/kon
measurement_conditions: one partner purified
Dear colleague, please return just the value in M⁻¹ s⁻¹, with no unit written.

These solved cases illustrate the format of a correct answer.
binder	scale_unit	reading
toripalimab Fab H.M34A (Fab, V domains shown, heavy chain of Sm3 with this change; numbers count from the chain's first residue; as the light chain of Sm3; source: Brevibacillus, culture supernatant (ammonium sulfate precipitate); not shown: 6xHis, C-terminal, kept; 6xHN, C-terminal, kept) VH: QGQLVQSGAEVKKPGASVKVSCKASGYTFTDYEAHWVRQAPIHGLEWIGVIESETGGTAYNQKFKGRVTITADKSTSTAYMELSSLRSEDTAVYYCAREGITTVATTYYWYFDVWGQGTTVTVSS VL: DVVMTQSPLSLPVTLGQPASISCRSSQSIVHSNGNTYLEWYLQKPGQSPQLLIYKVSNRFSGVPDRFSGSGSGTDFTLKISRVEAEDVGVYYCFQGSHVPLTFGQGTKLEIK	M⁻¹ s⁻¹	44300
toripalimab Fab L.P100Y (Fab, V domains shown, as the heavy chain of Sm3; light chain of Sm3 with this change; numbers count from the chain's first residue; source: Brevibacillus, culture supernatant (ammonium sulfate precipitate); not shown: 6xHis, C-terminal, kept; 6xHN, C-terminal, kept) VH: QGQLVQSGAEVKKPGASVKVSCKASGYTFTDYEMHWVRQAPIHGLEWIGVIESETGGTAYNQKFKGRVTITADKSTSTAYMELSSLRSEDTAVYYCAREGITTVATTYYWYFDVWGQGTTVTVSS VL: DVVMTQSPLSLPVTLGQPASISCRSSQSIVHSNGNTYLEWYLQKPGQSPQLLIYKVSNRFSGVPDRFSGSGSGTDFTLKISRVEAEDVGVYYCFQGSHVYLTFGQGTKLEIK	M⁻¹ s⁻¹	20200

From here, focus on the item given below.
Incoming: Look up kon for this binder: toripalimab Fab L.L101D (Fab, V domains shown, as the heavy chain of Sm3; light chain of Sm3 with this change; numbers count from the chain's first residue; source: Brevibacillus, culture supernatant (ammonium sulfate precipitate); not shown: 6xHis, C-terminal, kept; 6xHN, C-terminal, kept) VH: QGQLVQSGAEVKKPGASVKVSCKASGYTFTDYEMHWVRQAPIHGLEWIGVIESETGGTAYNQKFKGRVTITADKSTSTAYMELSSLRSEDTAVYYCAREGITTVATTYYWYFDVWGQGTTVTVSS VL: DVVMTQSPLSLPVTLGQPASISCRSSQSIVHSNGNTYLEWYLQKPGQSPQLLIYKVSNRFSGVPDRFSGSGSGTDFTLKISRVEAEDVGVYYCFQGSHVPDTFGQGTKLEIK
Outgoing: 26800
